Values from patent US8367121B2

- Test system: 6-OHDA toxicity
- assay-name: 6-OHDA toxicity in vitro
- Type: cell-based
recorded-endpoint: protection against / antagonism of 6-OHDA toxicity

- smiles-string: "CC(=O)N[C@@H](CS)C(=O)O"
  result: "directly antagonize"
- smiles-string: "N[C@@H](CCC(=O)N[C@@H](CS)C(=O)NCC(=O)O)C(=O)O"
  result: "directly antagonize"

* * *

- System: MPP+ toxicity
- assay-name: MPP+ toxicity in vitro (loss of ATP / cell death)
- Type: cell-based
- condition-summary: in vitro
recorded-endpoint: protection against MPP+ toxicity

# example entries with known answers
- compound: "CN1C(C(=O)Nc2ccccn2)=C(O)c2ccccc2S1(=O)=O [PIROXICAM, reference compound]"
  result: "effective"
- compound: "N[C@@H](Cc1c[nH]c2ccccc12)C(=O)O"
  result: "effective"
- compound: "O=C(COP(=O)(O)O)[C@@H](O)[C@H](O)[C@H](O)COP(=O)(O)O [FRUCTOSE 1,6 BISPHOSPHATE]"
  result: "effective"
- compound: "CC(=O)C(=O)O"
  result: "protect"
- compound: "CC(=O)O[C@H](CC(=O)[O-])C[N+](C)(C)C"
  result: "effective"

Test system MPP+ toxicity; read-out protection against MPP+ toxicity; what value for CC1=CC(=O)C(C(C)C)=CC1=O ?
effective

Test system MPP+ toxicity; read-out protection against MPP+ toxicity; what value for C=C(OP(=O)(O)O)C(=O)O [PHOSPHOENOLPYRUVATE] ?
effective

Test system MPP+ toxicity; read-out protection against MPP+ toxicity; what value for NC(=O)C1=CN([C@@H]2O[C@H](COP(=O)(O)OP(=O)(O)OC[C@H]3O[C@@H](n4cnc5c(N)ncnc54)[C@H](O)[C@@H]3O)[C@@H](O)[C@H]2O)C=CC1 ?
protect

Test system MPP+ toxicity; read-out protection against MPP+ toxicity; what value for Oc1ccc(C=Cc2cc(O)cc(O)c2)cc1 ?
effective

Test system MPP+ toxicity; read-out protection against MPP+ toxicity; what value for O=C(CO)[C@@H](O)[C@H](O)[C@H](O)CO ?
effective

Test system MPP+ toxicity; read-out protection against MPP+ toxicity; what value for O=C(O[C@@H]1Cc2c(O)cc(O)cc2O[C@@H]1c1cc(O)c(O)c(O)c1)c1cc(O)c(O)c(O)c1 [EGCG, (−)-Epigallocatechin-3-gallate] ?
effective
